Exercise: state measured IC50 for each of the molecules provided.
# target_or_test_system: SIK2 (Homo sapiens, UniProt Q9H0K1)
# Sequence (Q9H0K1 whole entry, species assumed): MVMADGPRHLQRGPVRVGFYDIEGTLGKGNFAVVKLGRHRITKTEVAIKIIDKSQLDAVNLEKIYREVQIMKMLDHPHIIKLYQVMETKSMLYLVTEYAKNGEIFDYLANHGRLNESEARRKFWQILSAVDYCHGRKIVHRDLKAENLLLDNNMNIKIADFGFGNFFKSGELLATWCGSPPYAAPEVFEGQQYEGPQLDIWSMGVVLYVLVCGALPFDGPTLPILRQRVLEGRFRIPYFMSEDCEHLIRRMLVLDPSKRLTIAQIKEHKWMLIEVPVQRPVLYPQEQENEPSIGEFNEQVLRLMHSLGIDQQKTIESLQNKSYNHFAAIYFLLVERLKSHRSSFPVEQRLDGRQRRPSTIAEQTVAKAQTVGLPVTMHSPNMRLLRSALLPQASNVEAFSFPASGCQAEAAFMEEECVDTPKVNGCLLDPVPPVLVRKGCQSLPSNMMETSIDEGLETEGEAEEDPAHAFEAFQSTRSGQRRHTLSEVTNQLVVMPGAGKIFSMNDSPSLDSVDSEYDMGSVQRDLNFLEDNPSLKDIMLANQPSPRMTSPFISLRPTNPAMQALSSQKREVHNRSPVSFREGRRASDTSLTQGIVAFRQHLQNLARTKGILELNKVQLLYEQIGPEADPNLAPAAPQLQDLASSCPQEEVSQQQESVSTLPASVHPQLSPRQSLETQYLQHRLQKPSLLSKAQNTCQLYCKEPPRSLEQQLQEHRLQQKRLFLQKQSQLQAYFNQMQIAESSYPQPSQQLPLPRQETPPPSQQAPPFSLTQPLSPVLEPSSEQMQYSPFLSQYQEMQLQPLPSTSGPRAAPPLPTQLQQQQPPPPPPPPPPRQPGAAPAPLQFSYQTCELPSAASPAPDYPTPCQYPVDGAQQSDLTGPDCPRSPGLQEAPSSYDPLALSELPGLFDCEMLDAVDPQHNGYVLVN
# experiment_notes: SIK2 Enzymatic Assay Version 1 (ADP Glo)
# Format: biochemical
# stated_conditions: enzyme 0.6 nM, 160 μM ATP and 140 μM HDAC5tide (each 2× final concentration); 30 minutes pre-incubation, 4 hours; ADPGlo luminescence; read-out: SIK2 ADP Glo IC50 (μM) (Test Example 1)
Answers are plain numbers, in µM.

Worked cases, IC50 given:
molecule	unit_tag	IC50
CN1CC[C@H](COc2cnc(C#N)cc2-c2ccn3nc(NC(=O)C4CC4)cc3c2)C1	µM	0.00496
CN1CC[C@H](Oc2cnc(C#N)cc2-c2ccn3nc(NC(=O)C4CC4)cc3c2)C[C@@H]1C(F)(F)F (relative stereo)	µM	0.00044
Cc1cc(-c2ccn3nc(NC(=O)C4CC4)cc3c2)c(OC2CN(C(C)C)C2)cn1	µM	0.0448

State recorded IC50 for all listed molecules.
1. CN1CC[C@@H](COc2cnc(C#N)cc2-c2ccn3nc(Nc4ccccn4)cc3c2)C1
2. N#CCN1CC[C@H](Oc2cnc(C#N)cc2-c2ccn3nc(NC(=O)C4CC4)cc3c2)C1
3. CN1CC[C@@H](Oc2cnc(C#N)cc2-c2ccn3nc(NC(=O)C4CC4)cc3c2)C[C@H]1C(F)(F)F (single isomer, unassigned)
4. N#Cc1cc(-c2ccn3nc(NC(=O)C4CC4)cc3c2)c(OC[C@H]2C[C@@H](NC3CC3)C2)cn1

Reply text:
0.0022
0.000337
0.00575
0.00192
